- STUDY SYSTEM: hTRPC4 (Homo sapiens)
- Construct: expressed in transfected cells; host or cells: HEK-293
- Sequence (Q9UBN4 whole entry): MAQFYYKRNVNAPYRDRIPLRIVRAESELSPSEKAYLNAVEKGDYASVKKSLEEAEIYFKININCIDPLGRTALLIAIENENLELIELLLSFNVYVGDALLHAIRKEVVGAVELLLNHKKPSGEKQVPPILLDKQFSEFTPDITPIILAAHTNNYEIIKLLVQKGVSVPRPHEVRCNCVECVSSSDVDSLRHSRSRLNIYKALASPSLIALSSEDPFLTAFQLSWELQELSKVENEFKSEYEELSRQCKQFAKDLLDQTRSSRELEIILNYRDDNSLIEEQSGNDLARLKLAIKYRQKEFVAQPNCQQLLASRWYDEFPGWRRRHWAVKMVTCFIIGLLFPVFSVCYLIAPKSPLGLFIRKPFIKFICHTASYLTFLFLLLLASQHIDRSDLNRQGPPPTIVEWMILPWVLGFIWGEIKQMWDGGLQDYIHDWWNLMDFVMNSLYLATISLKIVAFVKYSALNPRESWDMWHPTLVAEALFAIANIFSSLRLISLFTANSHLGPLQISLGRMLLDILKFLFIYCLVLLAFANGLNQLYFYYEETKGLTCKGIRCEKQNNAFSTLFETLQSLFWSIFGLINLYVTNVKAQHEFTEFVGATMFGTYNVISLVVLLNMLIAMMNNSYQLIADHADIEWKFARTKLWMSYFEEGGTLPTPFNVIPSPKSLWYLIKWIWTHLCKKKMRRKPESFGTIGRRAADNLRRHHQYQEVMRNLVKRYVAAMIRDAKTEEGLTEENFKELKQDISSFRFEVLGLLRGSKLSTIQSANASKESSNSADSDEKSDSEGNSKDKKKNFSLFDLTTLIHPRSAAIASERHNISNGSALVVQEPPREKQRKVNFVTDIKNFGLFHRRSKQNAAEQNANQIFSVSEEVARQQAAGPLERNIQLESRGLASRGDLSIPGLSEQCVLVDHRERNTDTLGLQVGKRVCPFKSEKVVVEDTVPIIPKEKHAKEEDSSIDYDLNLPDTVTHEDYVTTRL
- METHOD SUMMARY: TRPC4 inhibitory activity assay (FLIPR calcium fluorescence)
- Format: cell-based

[
  {
    "COMPOUND": "Cn1c(=O)n(CCCO)c(=O)c2c1nc(C1(F)CCC(C(F)(F)F)CC1)n2Cc1ccc(F)c(F)c1 (stereo not shown)",
    "IC50": "5.7 nM"
  }
]

---

// IC50 lookup, one value per entry
- STUDY SYSTEM: hTRPC5 (Homo sapiens, UniProt Q9UL62)
- Construct: expressed in transfected cells; host or cells: HEK-293
- Sequence (Q9UL62 whole entry): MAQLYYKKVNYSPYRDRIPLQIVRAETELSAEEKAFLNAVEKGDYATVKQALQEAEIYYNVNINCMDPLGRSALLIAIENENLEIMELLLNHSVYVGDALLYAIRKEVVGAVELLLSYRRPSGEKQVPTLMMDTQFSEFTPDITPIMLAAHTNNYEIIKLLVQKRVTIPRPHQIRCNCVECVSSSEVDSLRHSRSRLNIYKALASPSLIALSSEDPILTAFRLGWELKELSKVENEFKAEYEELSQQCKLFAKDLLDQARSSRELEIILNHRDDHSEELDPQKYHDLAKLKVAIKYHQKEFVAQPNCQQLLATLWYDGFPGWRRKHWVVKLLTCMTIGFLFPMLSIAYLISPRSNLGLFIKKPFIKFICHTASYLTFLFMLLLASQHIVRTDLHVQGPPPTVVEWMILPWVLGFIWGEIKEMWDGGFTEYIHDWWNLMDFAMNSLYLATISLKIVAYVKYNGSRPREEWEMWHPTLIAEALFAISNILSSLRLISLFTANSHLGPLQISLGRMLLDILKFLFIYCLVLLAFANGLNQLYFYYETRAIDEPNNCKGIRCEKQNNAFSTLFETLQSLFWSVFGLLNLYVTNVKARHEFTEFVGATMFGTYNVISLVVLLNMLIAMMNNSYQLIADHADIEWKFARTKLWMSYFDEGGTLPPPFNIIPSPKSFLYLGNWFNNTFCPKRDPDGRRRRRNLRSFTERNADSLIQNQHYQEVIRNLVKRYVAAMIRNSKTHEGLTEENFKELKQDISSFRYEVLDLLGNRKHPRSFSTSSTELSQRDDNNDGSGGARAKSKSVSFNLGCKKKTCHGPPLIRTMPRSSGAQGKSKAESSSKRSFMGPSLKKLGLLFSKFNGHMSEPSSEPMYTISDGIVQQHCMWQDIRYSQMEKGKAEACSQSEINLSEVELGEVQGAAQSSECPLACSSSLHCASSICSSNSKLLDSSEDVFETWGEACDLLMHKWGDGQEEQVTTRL
- METHOD SUMMARY: TRPC5 inhibitory activity assay (FLIPR calcium fluorescence, Englerin A stimulation)
- Format: cell-based
ASSAY ENDPOINT: IC50 (nM)

[
  {
    "COMPOUND": "Cn1c(=O)n(CCCO)c(=O)c2c1nc(C1(F)CCC(C(F)(F)F)CC1)n2Cc1ccc(F)c(F)c1 (centres unmarked)",
    "RECORDED VALUE": 1.3
  },
  {
    "COMPOUND": "Cn1c(=O)n(CCCO)c(=O)c2c1nc(C1CCC3(CC1)OCCO3)n2Cc1ccc(Cl)cc1",
    "RECORDED VALUE": 82.1
  }
]

---

- METHOD SUMMARY: Pharmacokinetics in rats (oral and intravenous)
- Format: in vivo, SD rats
- SETUP CONDITIONS: male, SD, rat, plasma, 10 mg/kg (PO)
ASSAY ENDPOINT: half-life (h)

[
  {
    "LINE NOTATION": "Cn1c(=O)n(CCCO)c(=O)c2c1nc(C1(F)CCC(F)(F)CC1)n2Cc1ccc(F)c(Cl)c1",
    "RECORDED VALUE": 4.88
  }
]

---

- METHOD SUMMARY: Pharmacokinetics in rats (oral and intravenous)
- Assay type: in vivo, SD rats
- SETUP CONDITIONS: male, SD, rat, plasma, 1 mg/kg (IV)

[
  {
    "LINE NOTATION": "Cn1c(=O)n(CCCO)c(=O)c2c1nc(C1(F)CCC(F)(F)CC1)n2Cc1ccc(F)c(Cl)c1",
    "clearance (mL/min/kg)": 15.4
  }
]

---

- METHOD SUMMARY: Pharmacokinetics in rats (oral and intravenous)
- Format: in vivo, SD rats
- SETUP CONDITIONS: male, SD, rat, plasma, 1 mg/kg (IV)

[
  {
    "LINE NOTATION": "Cn1c(=O)n(CCCO)c(=O)c2c1nc(C1(F)CCC(F)(F)CC1)n2Cc1ccc(F)c(Cl)c1",
    "half-life [h]": 3.77
  }
]

---

// selectivity ratio at 2 min lookup, one value per entry
- STUDY SYSTEM: hERG channel (relative to TRPC5) (Homo sapiens)
- Construct: expressed in transfected cells; host or cells: CHO
- Sequence (Q12809 whole entry): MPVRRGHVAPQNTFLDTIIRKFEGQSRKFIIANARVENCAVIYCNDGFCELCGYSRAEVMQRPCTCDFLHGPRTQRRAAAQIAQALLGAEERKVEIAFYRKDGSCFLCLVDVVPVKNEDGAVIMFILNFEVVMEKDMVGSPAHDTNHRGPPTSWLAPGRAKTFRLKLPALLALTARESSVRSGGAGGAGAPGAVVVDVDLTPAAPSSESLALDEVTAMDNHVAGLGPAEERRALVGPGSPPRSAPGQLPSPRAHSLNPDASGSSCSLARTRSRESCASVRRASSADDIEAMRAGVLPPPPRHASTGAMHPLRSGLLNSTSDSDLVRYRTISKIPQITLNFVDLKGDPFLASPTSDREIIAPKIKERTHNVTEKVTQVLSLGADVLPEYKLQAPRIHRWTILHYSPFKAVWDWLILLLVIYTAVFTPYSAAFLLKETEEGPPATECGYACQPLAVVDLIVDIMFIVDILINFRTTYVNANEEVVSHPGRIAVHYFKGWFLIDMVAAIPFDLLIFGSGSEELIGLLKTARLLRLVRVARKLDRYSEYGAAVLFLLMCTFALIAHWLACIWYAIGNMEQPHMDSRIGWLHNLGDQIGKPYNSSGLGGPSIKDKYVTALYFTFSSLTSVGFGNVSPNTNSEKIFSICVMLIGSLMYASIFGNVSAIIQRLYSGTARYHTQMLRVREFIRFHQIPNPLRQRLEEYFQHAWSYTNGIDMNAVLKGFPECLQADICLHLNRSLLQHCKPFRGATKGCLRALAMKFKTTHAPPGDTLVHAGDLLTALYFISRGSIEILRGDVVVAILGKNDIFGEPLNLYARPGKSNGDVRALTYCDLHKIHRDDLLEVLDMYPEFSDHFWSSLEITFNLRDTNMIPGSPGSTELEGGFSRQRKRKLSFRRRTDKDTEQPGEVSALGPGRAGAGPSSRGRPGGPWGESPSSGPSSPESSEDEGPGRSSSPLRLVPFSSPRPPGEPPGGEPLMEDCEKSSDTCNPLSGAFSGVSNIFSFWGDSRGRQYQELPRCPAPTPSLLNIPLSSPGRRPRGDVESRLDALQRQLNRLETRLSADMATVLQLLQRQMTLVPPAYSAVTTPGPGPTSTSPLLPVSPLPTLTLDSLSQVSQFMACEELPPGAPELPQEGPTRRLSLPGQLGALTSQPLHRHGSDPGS
- METHOD SUMMARY: hERG channel inhibition assay (Qpatch whole-cell recording, CHO cells expressing hERG)
- Assay type: cell-based
- SETUP CONDITIONS: human, CHO cells expressing hERG; ratio of IC50 values

[
  {
    "MOLECULE": "Cn1c(=O)n(CCCO)c(=O)c2c1nc(C1(F)CCC(F)(F)CC1)n2Cc1ccc(C(F)(F)F)cc1",
    "STUDY SYSTEM": "hERG channel (relative to TRPC5) (Homo sapiens)",
    "QUAL": "=",
    "selectivity ratio at 2 min": 1940
  },
  {
    "MOLECULE": "Cn1c(=O)n(CCCO)c(=O)c2c1nc(C1(F)CCC(F)(F)CC1)n2Cc1ccc(F)c(Cl)c1",
    "STUDY SYSTEM": "hERG channel (relative to TRPC5) (Homo sapiens)",
    "QUAL": ">",
    "selectivity ratio at 2 min": 69000
  },
  {
    "MOLECULE": "Cn1c(=O)n(CCCO)c(=O)c2c1nc(C1(F)CCC(C(F)(F)F)CC1)n2Cc1ccc(Cl)cc1 (stereo not shown)",
    "STUDY SYSTEM": "hERG channel (relative to TRPC5) (Homo sapiens)",
    "QUAL": ">",
    "selectivity ratio at 2 min": 7840
  },
  {
    "MOLECULE": "COC1CCC(F)(c2nc3c(c(=O)n(CCCO)c(=O)n3C)n2Cc2ccc(Cl)cc2)CC1 (stereo not shown)",
    "STUDY SYSTEM": "hERG channel (relative to TRPC5) (Homo sapiens)",
    "QUAL": "=",
    "selectivity ratio at 2 min": 737
  }
]

Values were extracted from patent EP4663640A1.
